protocol summary: Plasma clearance in iv dosed CD-1 mouse measured after 24 hrs
Type: ADME, organism-based
Would you kindly list clearance for each of these compounds?
Write the numeric value and append its unit.

Req: Field request: clearance | item: `C[C@H](NC(=O)[C@]1(NC(=O)c2cc(Cl)c(Cl)[nH]2)CO[C@H](c2ccccc2)C1)c1cn2c(=O)n(C)cc(F)c2n1`
Resp: 33.3 mL/min/kg

Req: Field entry: `C[C@H](NC(=O)[C@H](CCc1ccccc1)NC(=O)c1cc(Cl)c(Cl)[nH]1)c1cn2c(=O)n(C)cc(F)c2n1`
Resp: 45 mL/min/kg

----------
protocol summary: Thermodynamic solubility of the compound at pH 7.4 measured after 48 hrs by UHPLC analysis
Assay type: physicochemical
assay context: buffer, read-out: Therm_solubility
measured quantity: solubility thermodynamic at 48 h (µM)
Enter your answer as a number in µM; do not include the unit.

Req: # solubility thermodynamic at 48 h lookup, item `C[C@H](NC(=O)[C@]1(NC(=O)c2cc(Cl)c(Cl)[nH]2)CO[C@H](c2ccccc2)C1)c1ncc2c(n1)CN(C1COC1)C2`
Resp: 280

Req: Try the compound `COCc1ccc([C@@H]2C[C@](NC(=O)c3cc(Cl)c(Cl)[nH]3)(C(=O)N[C@@H](C)c3ncc4c(n3)CN(C3CCN(C)CC3)C4)CO2)cc1`
Resp: 60

----------
protocol summary: Metabolic stability in human liver microsomes assessed as unbound intrinsic clearance at 0.5 uM measured after 4 hrs
Format: ADME, Microsome
measured quantity: CL free (mL/min/kg)
The reply should be a number in mL/min/kg, with the unit left off.

Req: Item `C[C@H](NC(=O)[C@H](CCc1ccccc1)NC(=O)c1cc(Cl)c(Cl)[nH]1)c1cn2c(=O)n(C)cc(F)c2n1` has what recorded CL free?
Resp: 163

Req: Entry to check: `C[C@H](NC(=O)[C@]1(NC(=O)c2cc(Cl)c(Cl)[nH]2)CO[C@H](c2ccccc2)C1)c1cn2c(=O)n(C)cc(F)c2n1`
Resp: 61.7

Req: # iterate: `O=C(N[C@@H](CCc1ccccc1)C(=O)NC[C@@H]1COCCO1)c1cc(Cl)c(Cl)[nH]1`
Resp: 60

Req: Cool, now `O=C(N[C@H](C(=O)NCc1cn2cccnc2n1)[C@@H]1C[C@H]1c1ccccc1)c1cc(Cl)c(Cl)[nH]1`
Resp: 217

Req: Now this one: `O=C(N[C@@H](CCc1ccccc1)C(=O)NCCC1(O)CCOCC1)c1cc(Cl)c(Cl)[nH]1`
Resp: 160

Req: Another molecule to check: `O=C(NC1(C(=O)NCc2cn3cccnc3n2)Cc2ccccc2C1)c1cc(Cl)c(Cl)[nH]1`
Resp: 115

Req: Query `O=C(N[C@@H](CCc1ccccc1)C(=O)NCc1ncc(C2CCOCC2)cn1)c1cc(Cl)c(Cl)[nH]1` next
Resp: 333

----------
protocol summary: Oral bioavailability in mouse at 10 mg/kg
Type: ADME, organism-based
assay context: in vivo
measured quantity: bioavailability (%)
# output: bare number, implied unit %

Req: Which bioavailability value is on record for `C[C@H](NC(=O)[C@]1(NC(=O)c2cc(Cl)c(Cl)[nH]2)CO[C@H](c2ccccc2)C1)c1cn2c(=O)n(C)cc(F)c2n1` ?
Resp: 22

----------
protocol summary: Half life in Sprague-Dawley rat at 1 mg/kg, iv measured after 24 hrs
Assay type: ADME, organism-based
assay context: in vivo
Label 1 when half-life < 3 h; otherwise -1.

Req: Determine whether this compound shows half-life lower than 3 h (ties excluded): `C[C@H](NC(=O)[C@]1(NC(=O)c2cc(Cl)c[nH]2)CO[C@H](c2ccccc2)C1)c1ncc2c(n1)CN(C1CCN(C)CC1)C2`
Resp: -1

Req: Let us now turn to `C[C@H](NC(=O)[C@]1(NC(=O)c2cc(Cl)c(Cl)[nH]2)CO[C@H](c2ccccc2)C1)c1ncc2c(n1)CN(C1CCN(C)CC1)C2`
Resp: -1

Req: Also, `COCc1ccc([C@@H]2C[C@](NC(=O)c3cc(Cl)c(Cl)[nH]3)(C(=O)N[C@@H](C)c3ncc4c(n3)CN(C3CCN(C)CC3)C4)CO2)cc1` please.
Resp: 1

Req: Queued: `C[C@H](NC(=O)[C@]1(NC(=O)c2cc(Cl)c(Cl)[nH]2)CO[C@H](c2ccc(F)cc2)C1)c1ncc2c(n1)CN(C1CCN(C)CC1)C2`
Resp: -1

Req: Another compound to look at: `C[C@H](NC(=O)[C@]1(NC(=O)c2cc(Cl)c(Cl)[nH]2)CO[C@H](c2ccccc2)C1)c1ncc2c(n1)COC2`
Resp: 1

----------
protocol summary: Volume of distribution at steady-state in Sprague-Dawley rat at 1 mg/kg, iv measured after 24 hrs
Type: ADME, organism-based
assay context: in vivo, read-out: Vdss
measured quantity: Vd (L/kg)
Lab book: enter the figure in L/kg, no units written.

Req: Give its Vd value. Item: `COCc1ccc([C@@H]2C[C@](NC(=O)c3cc(Cl)c(Cl)[nH]3)(C(=O)N[C@@H](C)c3ncc4c(n3)CN(C3CCN(C)CC3)C4)CO2)cc1`
Resp: 3.2

Req: What do you have for `C[C@H](NC(=O)[C@]1(NC(=O)c2cc(Cl)c(Cl)[nH]2)CO[C@H](c2ccccc2)C1)c1ncc2c(n1)COC2` ?
Resp: 1.4

Req: Same lookup for `C[C@H](NC(=O)[C@]1(NC(=O)c2cc(Cl)c(Cl)[nH]2)CO[C@H](c2ccc(F)cc2)C1)c1ncc2c(n1)CN(C1CCN(C)CC1)C2` , please.
Resp: 6.4

Req: Query `C[C@H](NC(=O)[C@]1(NC(=O)c2cc(Cl)c(Cl)[nH]2)CO[C@H](c2ccccc2)C1)c1ncc2c(n1)CN(C1CCN(C)CC1)C2` next
Resp: 5

Req: Same lookup for `C[C@H](NC(=O)[C@]1(NC(=O)c2cc(Cl)c[nH]2)CO[C@H](c2ccccc2)C1)c1ncc2c(n1)CN(C1CCN(C)CC1)C2` , please.
Resp: 5.9

----------
protocol summary: Thermodynamic solubility of the compound at pH 7.4 measured after 48 hrs by UHPLC analysis
Type: physicochemical
assay context: buffer, read-out: Therm_solubility
Give solubility thermodynamic at 48 h for every item shown.

Req: solubility thermodynamic at 48 h lookup needed for `O=C(N[C@@H](CCc1ccccc1)C(=O)NCc1ncc2c(n1)COC2)c1cc(Cl)c(Cl)[nH]1` , thanks.
Resp: 8 µM

Req: Lookup `C[C@H](NC(=O)[C@]1(NC(=O)c2cc(Cl)c(Cl)[nH]2)CO[C@H](c2ccccc2)C1)c1ncc2c(n1)CN(CC(F)F)C2`
Resp: 7.2 µM

Req: Ok, now `C[C@H](NC(=O)[C@]1(NC(=O)c2cc(Cl)c(Cl)[nH]2)CO[C@H](c2ccccc2)C1)c1cnc2c(n1)COC2`
Resp: 60 µM

Req: Now give it for `C[C@H](NC(=O)[C@]1(NC(=O)c2cc(Cl)c(Cl)[nH]2)CO[C@H](c2ccccc2)C1)c1ncc2c(n1)CN(CC(F)(F)F)C2` too.
Resp: 5.3 µM

Req: Note, next up: `C[C@H](NC(=O)[C@]1(NC(=O)c2cc(Cl)c(Cl)[nH]2)CO[C@H](c2ccccc2)C1)c1ncc2c(n1)CCC2`
Resp: 3.8 µM

Req: Queued: `C[C@H](NC(=O)[C@H](CCc1ccccc1)NC(=O)c1cc(Cl)c(Cl)[nH]1)c1cn2c(=O)n(C)cc(F)c2n1`
Resp: 4.5 µM

Req: Could you do the same for `C[C@H](NC(=O)[C@]1(NC(=O)c2cc(Cl)c[nH]2)CO[C@H](c2ccccc2)C1)c1ncc2c(n1)CN(C1CCN(C)CC1)C2` , please?
Resp: 120 µM

Req: What would you report for `O=C(N[C@@H](CCc1ccccc1)C(=O)NCc1ncc(CO)cn1)c1cc(Cl)c(Cl)[nH]1` ?
Resp: 73 µM

Req: Can you check `C[C@H](NC(=O)[C@]1(NC(=O)c2cc(Cl)c(Cl)[nH]2)CO[C@H](c2cccc(C#N)c2)C1)c1ncc2c(n1)CN(C1CCN(C)CC1)C2` next?
Resp: 654 µM

Req: Another compound: `C[C@H](NC(=O)[C@]1(NC(=O)c2cc(Cl)c(Cl)[nH]2)CO[C@H](c2ccccc2)C1)c1cn2c(=O)n(C)cc(F)c2n1`
Resp: 0.82 µM

Req: For `COCc1cnc(CNC(=O)[C@H](CCc2ccccc2)NC(=O)c2cc(Cl)c(Cl)[nH]2)nc1` then?
Resp: 5.7 µM

Req: Likewise for `CN1Cc2cnc(CNC(=O)[C@H](CCc3ccccc3)NC(=O)c3cc(Cl)c(Cl)[nH]3)nc2C1` ?
Resp: 1.8 µM

Req: Next up: `O=C(N[C@@H](CCc1ccccc1)C(=O)NCc1cccnc1)c1cc(Cl)c(Cl)[nH]1`
Resp: 230 µM

Req: And what about the compound `C[C@H](NC(=O)[C@]1(NC(=O)c2cc(Cl)c(Cl)[nH]2)CO[C@H](c2ccccc2)C1)c1ncc(CO)cn1` ?
Resp: 67 µM

Req: Proceed to `C[C@H](NC(=O)[C@]1(NC(=O)c2cc(Cl)c(Cl)[nH]2)CO[C@H](c2ccccc2)C1)c1ncc2c(n1)CN(C1CN(C)C1)C2`
Resp: 600 µM
